Hey, just so you know, these numbers are from patent US12473560.

Molecular target: soluble G614 HexaPro spike ectodomain (SARS-CoV-2, UniProt P0DTC2 14-1208)
MEASURED_QUANTITY: pKd
Reminder that pKd means the negative base-10 logarithm of the concentration expressed in mol/L.

For record AB-7 full-length IgG1 (antibody, V domains shown) VH: EVQLEESGTVLARPGASVKMSCKASGYTFTSYWMHWIKQRPGQGLEWIGAIYPGNSDTNYNQKFKDKAKLTAVKSTSSAYMELSSLTNEDSAVYFCTREGIPQLLRSLDYWGQGTSVTVSS VL: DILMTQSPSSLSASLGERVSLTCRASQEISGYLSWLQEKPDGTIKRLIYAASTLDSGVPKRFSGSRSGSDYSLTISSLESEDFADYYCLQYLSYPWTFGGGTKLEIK the listed pKd is 8.59
